- System: MCF7 breast
- PROTOCOL SUMMARY: NCI-60 one-dose screen, 48 h
- SETUP CONDITIONS: 10 µM unless noted
The panel holds about 83,000 compounds, 20% with a hit somewhere; the sample as a whole holds those more often. Active and inactive are the calls of the source. Rule for the calls: active = growth percent below 10; inactive = the rest.
Pick one: True for active, False for inactive

Task: Which result was noted for this compound in the test: `CCN(CC)c1ccc(C(=O)c2ccccc2)cc1`
Output: False

Task: Which result was noted for this compound in the test: `O=C(CCN1CCCC1)Nc1ccc2c(NCCCCc3ccccc3)c3ccccc3nc2c1`
Output: True

Task: Which result was noted for this compound in the test: `NS(=O)(=O)c1ccc(Cn2c(SCC(=O)N/N=C/c3ccccc3O)nc3ccccc3c2=O)cc1`
Output: False

Task: Which result was noted for this compound in the test: `COc1cc(C(=O)Nc2cc3c(cc2Oc2cc(C)cc(C)c2)C(=O)N(C)[C@@H](CC(=O)N(C)O)C(=O)N3)c(Br)c(OC)c1OC`
Output: True

Task: Which result was noted for this compound in the test: `COc1cc2c(=O)n(CCN)c3c4cc5c(cc4ccc3c2cc1OC)OCO5`
Output: False

Task: Which result was noted for this compound in the test: `N#Cc1c(NC(=O)NCc2ccccc2)sc2c1CCCCC2`
Output: False

Task: Which result was noted for this compound in the test: `CCNC(=O)Oc1ccc(/C(=C(\C)c2ccccc2)c2ccc(OCCN3CCCCC3)cc2)cc1`
Output: False

Task: Which result was noted for this compound in the test: `O=C(/C=C/c1c(-c2ccc(Cl)cc2)nn(-c2ccccc2)c1C(F)(F)F)c1ccc(Cl)cc1`
Output: False

Task: Which result was noted for this compound in the test: `O=C(/C(=C/c1ccc([N+](=O)[O-])cc1)SCc1ccc(F)cc1)c1ccc(F)cc1`
Output: True

Task: Which result was noted for this compound in the test: `O=Cc1ccc(-c2cn3ccnc3c(-c3ccc4ncn(Cc5ccccc5)c4c3)n2)cc1`
Output: False

Task: Which result was noted for this compound in the test: `CCNc1nc2ccc(Nc3ccnc4cc(Cl)ccc34)cc2[nH]1`
Output: False

Task: Which result was noted for this compound in the test: `COc1ccc(/C=C/c2nc(Nc3ccc(S(=O)(=O)NC(C)=O)cc3)c3ccccc3n2)cc1`
Output: False

Task: Which result was noted for this compound in the test: `CCC(CC)NCC(C)(C)O`
Output: False

Task: Which result was noted for this compound in the test: `COc1c(Cl)c2c(c(OC)c1OC)-c1ccc(SC)c(=O)cc1[C@@H](NC(=O)OCC(F)(F)F)CC2`
Output: False

Task: Which result was noted for this compound in the test: `CCNC(=O)Oc1ccc(/C(=C(\C)c2ccccc2)c2ccc(OCCCN(C)C)cc2)cc1`
Output: False

Task: Which result was noted for this compound in the test: O=C(c1nc2ccccc2[nH]1)C1C(c2ccc(Cl)cc2)C2CC3CCCC[C@H]3N2[C@@]12C(=O)Nc1cc(Cl)ccc12 (some centres undefined)
Output: False

Task: Which result was noted for this compound in the test: `Cc1cccc(-c2cn3ccnc3c(-c3ccc4ncn(Cc5ccccc5)c4c3)n2)c1`
Output: False

Task: Which result was noted for this compound in the test: `CCCCCN1C=C/C(=C\C(=O)N2CCCc3ccccc32)c2ccccc21`
Output: False

Task: Which result was noted for this compound in the test: `CCCCCC(=O)Oc1ccc(/C(=C(/C)Cc2ccc(OC)cc2)c2ccc(OCCCN(C)C)cc2)cc1`
Output: False

Task: Which result was noted for this compound in the test: CC(=O)N1N=C(c2ccc(-n3ccc(C(F)(F)F)n3)c(F)c2)CC1c1ccc[nH]1 (centres undefined)
Output: False

Task: Which result was noted for this compound in the test: `Cc1cc2c(c(C)c1Cl)C(=O)/C(=C/c1ccc(O)c(O)c1)O2`
Output: False

Task: Which result was noted for this compound in the test: `CCc1c(Cl)nc(N)nc1Nc1ccc(C)c(C)c1`
Output: False

Task: Which result was noted for this compound in the test: `CCCCNC(=O)Oc1ccc(/C(=C(\C)c2ccccc2)c2ccc(OCCN3CCCCC3)cc2)cc1`
Output: False

Task: Which result was noted for this compound in the test: `O=C(Nc1cccc(C2=NCCN2)c1)c1ccc(-c2ccc(C(=O)Nc3cccc(C4=NCCN4)c3)cc2)cc1`
Output: False

Task: Which result was noted for this compound in the test: CN1CCC(=C(c2ccccc2)c2ccccc2)C(c2ccccc2)C1 (centres undefined)
Output: False

Task: Which result was noted for this compound in the test: CN(C)c1ccc(C2C(C#N)=C(/N=C/c3ccccc3)Oc3c2ccc2ccccc32)cc1 (centres undefined)
Output: False

Task: Which result was noted for this compound in the test: `NNC(=O)c1ccc(-n2nc(-c3ccccc3)c3ccccc32)cc1`
Output: False

Task: Which result was noted for this compound in the test: `O=C(/C=C(/C=C/c1csc2ccccc12)OB(F)F)/C=C/c1csc2ccccc12`
Output: False

Task: Which result was noted for this compound in the test: `C#Cc1cccc(NC(=O)c2cccc(NC(=O)CCl)c2)c1`
Output: True

Task: Which result was noted for this compound in the test: `O=S(=O)(NCCNc1nccc(-c2c(-c3cccc(O)c3)nc3occn23)n1)c1ccccc1`
Output: False

Task: Which result was noted for this compound in the test: `COc1cc(NC(=O)CSc2nc3ccc(C)cc3c(=O)n2Cc2ccccc2)cc(OC)c1OC`
Output: False

Task: Which result was noted for this compound in the test: `COc1ccc(C/C(C)=C(/c2ccc(OCCCN(C)C)cc2)c2ccc(OC(C)=O)cc2)cc1`
Output: False

Task: Which result was noted for this compound in the test: `C=C1C(=O)O[C@H]2[C@H]1CC/C(CNC(=O)c1cccc3ccccc13)=C\CC[C@@]1(C)O[C@@H]21`
Output: False

Task: Which result was noted for this compound in the test: `O=C(Cc1ccccc1)NNc1nc(Cl)nc(N2CCN(C(c3ccccc3)c3ccccc3)CC2)n1`
Output: False

Task: Which result was noted for this compound in the test: `COc1ccc(N2CCN(c3ccc(NC4=C(Cl)C(=O)c5ncccc5C4=O)cc3)CC2)cc1`
Output: True

Task: Which result was noted for this compound in the test: CC1=CCC(OC(=O)C(C)(O)CCC(O)(C(=O)OC2(C)C=CC(O)(C(C)C)CC2)C(C)C)(C(C)C)CC1 (centres undefined)
Output: False

Task: Which result was noted for this compound in the test: `CCCCCCOc1ccc(/C=N/Nc2cc(C)nc3ccc(Cl)cc23)cc1`
Output: True

Task: Which result was noted for this compound in the test: OC(c1cccc(C(F)(F)F)c1)c1cnccc1NC1CCCCC1 (centres undefined)
Output: False

Task: Which result was noted for this compound in the test: C/C=C(\C)C(=O)NC1=CC[C@@]2(C)C(=CCC3C2CC[C@@]2(C)C3CC[C@@H]2C(C)N(C)C)C1=O (some centres undefined)
Output: False
